Values were extracted from patent US11618747B2.

studyTarget: LXRβ ligand-binding domain (Homo sapiens, UniProt P55055, DUP175-175)
Construct: amino acids 156-461; NP009052; made in house; host or cells: E. coli
Sequence (P55055 with tags, fused parts or gaps DUP175-175 limits assumed): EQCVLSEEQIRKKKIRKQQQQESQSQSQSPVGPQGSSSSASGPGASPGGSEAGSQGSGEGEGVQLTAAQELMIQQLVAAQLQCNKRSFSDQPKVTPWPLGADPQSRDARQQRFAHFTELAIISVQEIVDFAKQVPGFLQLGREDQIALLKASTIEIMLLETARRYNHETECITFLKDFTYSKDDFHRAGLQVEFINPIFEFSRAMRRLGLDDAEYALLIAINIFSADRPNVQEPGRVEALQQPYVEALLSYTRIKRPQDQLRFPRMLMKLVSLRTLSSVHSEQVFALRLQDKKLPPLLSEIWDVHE
assayProcedure: TR-FRETβ activity assay (NCoA3 coactivator peptide recruitment)
Format: biochemical
conditionInfo: TR-FRET, 1 μM 24(S)-25-epoxycholesterol prestimulation; read-out: FRETβ (EC50 range)
List of EC50 values.

Examples from the recorded data:
• N#Cc1sccc1-c1c(-c2cccs2)n(S(=O)(=O)c2ccc(Cl)cc2)c2ccc(OCC(=O)O)cc12 [Example 15] = > 10000 nM
• Cc1ccc(S(=O)(=O)n2c(-c3cccc(N4CC(C(=O)O)C4)c3)c(-c3ccsc3CCO)c3cc(F)ccc32)cc1 [3/27] = 1000 to 10000 nM

Please look at the following molecule next.
query: # input molecule: Cc1ccc(S(=O)(=O)n2c(-c3cccc(C4CC(C(=O)O)C4)c3)c(-c3ccsc3C#N)c3cc(F)ccc32)cc1 (stereo not drawn) [3/39] ; wanted: its EC50
result: 100 to 1000 nM

* * *

studyTarget: full length (FL) LXRβ (Homo sapiens, UniProt P55055, DUP175-175)
Construct: the full length (FL) proteins of LXRα (amino acids 1-447); NP005684; NP009052; expressed in transfected cells; host or cells: HEK293
assayProcedure: LXR Gal4 reporter transient transfection assay (FL-M2H Gal4β)
Type: cell-based
conditionInfo: HEK293 cells, full length LXRβ; read-out: FL-M2H Gal4β (EC50 range)
pEC50: −log10 of the molar value.
List of pEC50 values.

- Cc1ccc(S(=O)(=O)n2c(-c3cccc(-c4ccc(C(=O)O)cc4Cl)c3)c(-c3ccsc3C#N)c3cc(F)ccc32)cc1F: > 7.00
- Cc1ccc(S(=O)(=O)n2c(-c3cccc(-c4ccc(C(=O)O)cc4Cl)c3)c(-c3cccc(F)c3C#N)c3cc(F)ccc32)cc1: > 7.00

Please look at the following compound next.
query: # input compound: Cc1ccc(S(=O)(=O)n2c(-c3cccc(-c4ccc(CO)c(S(=O)(=O)CC(=O)O)c4)c3)c(-c3ccsc3C#N)c3ccccc32)cc1 ; wanted: its pEC50
result: 6.00 to 7.00

* * *

List of EC50 values.
studyTarget: full length (FL) LXRα (Homo sapiens)
Construct: the full length (FL) proteins of LXRα (amino acids 1-447); NP005684; expressed in transfected cells; host or cells: HEK293
Sequence (Q13133 whole entry, the tested form may be a part): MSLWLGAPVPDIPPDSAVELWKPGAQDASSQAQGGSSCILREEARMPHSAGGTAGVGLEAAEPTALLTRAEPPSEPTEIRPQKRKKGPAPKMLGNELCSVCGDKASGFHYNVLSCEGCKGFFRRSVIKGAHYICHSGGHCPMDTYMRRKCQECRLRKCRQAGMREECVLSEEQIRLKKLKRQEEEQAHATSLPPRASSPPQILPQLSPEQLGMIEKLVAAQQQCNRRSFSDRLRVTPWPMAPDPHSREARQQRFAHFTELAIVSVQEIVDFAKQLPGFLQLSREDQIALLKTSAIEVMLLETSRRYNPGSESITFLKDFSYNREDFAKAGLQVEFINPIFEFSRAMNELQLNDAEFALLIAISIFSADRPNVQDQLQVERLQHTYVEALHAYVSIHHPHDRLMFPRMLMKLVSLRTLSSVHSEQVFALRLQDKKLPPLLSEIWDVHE
assayProcedure: LXR Gal4 reporter transient transfection assay (FL-M2H Gal4α)
Assay type: cell-based
conditionInfo: HEK293 cells, full length LXRα; read-out: FL-M2H Gal4α (EC50 range)
Protocol: The tested compounds were usually dissolved, tested and stored as 20 mM stock solutions in DMSO. […] LXRα and LXRβ activity status was determined via detection of interaction with coactivator and corepressor proteins in mammalian two-hybrid experiments (M2H). […] Interaction was monitored via activation of a coexpressed Firefly Luciferase Reporter gene under control of a promoter containing repetitive GAL4 response elements (vector pFRLuc; Stratagene). […]

Examples from the recorded data:
- Cc1n[nH]c(C)c1-c1c(-c2cccc(-c3ccc(C(=O)O)cc3Cl)c2)n(S(=O)(=O)c2ccc(C(F)F)cc2)c2ccc(F)cc12 [11/24]: 100 to 1000 nM
- N#Cc1cccc(C#N)c1-c1c(-c2cccc(-c3ccc(C(=O)O)cc3Cl)c2)n(S(=O)(=O)c2ccc(C(F)F)cc2)c2ccc(F)cc12 [11/12]: < 100 nM
- Cc1ccc(S(=O)(=O)n2c(-c3cccc(-c4cc(C(=O)O)nn4C(C)C)c3)c(-c3ccsc3C#N)c3cc(F)ccc32)cc1 [12/8]: 100 to 1000 nM

query: # input compound: Cc1ccc(S(=O)(=O)n2c(-c3cccc(-c4ccc(C(C)(C)C(=O)O)c(S(C)(=O)=O)c4)c3)c(-c3ccsc3C#N)c3cc(F)ccc32)cc1 [2/18] ; wanted: its EC50
result: 100 to 1000 nM

query: # input compound: Cc1ccc(S(=O)(=O)n2c(-c3cccc(-c4ccc(C(=O)O)nc4)c3)c(-c3ccsc3C#N)c3cc(F)ccc32)cc1 [3/47] ; wanted: its EC50
result: < 100 nM

query: # input compound: N#Cc1sccc1-c1c(-c2cccc(-c3ccc(C(=O)O)cc3Cl)c2)n(S(=O)(=O)c2ccc(C(F)F)nc2)c2ccc(F)cc12 [11/57] ; wanted: its EC50
result: < 100 nM

query: # input compound: Cc1ccc(S(=O)(=O)n2c(-c3cccc(-c4ccc(CN)cc4Cl)c3)c(-c3ccsc3C#N)c3cc(F)ccc32)cc1 [2/1] ; wanted: its EC50
result: 100 to 1000 nM
